experiment: chemical genetic growth profiling, strain panel (AID 1159580);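 further: tested at 20 µM; growth read once vehicle control cultures reached saturation at 30 °C; 1 = growth at the plate median or of vehicle wells; lower values mean less growth of the strain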; details: S. cerevisiae deletion strains, growth OD, locus YLR370C, strain arc18, stronger effect = lower value
Among all 5,500 compounds or so, about 2,000 (36%) were called active. Not shown: some 18% with an inconclusive outcome. The list shows a part of the results.
Recorded endpoint: normalized growth

| Compound | Recorded endpoint | Measured value |
| --- | --- | --- |
| CCCCCCCCCCCCCCC(C(=O)O)C(O)(CC(=O)OC)C(=O)O (stereo not given) | normalized growth | 1.01 |
| COc1c(-c2coc3cc4c(cc3c2=O)CC(OC(C)=O)C(C)(C)O4)ccc2c1C=CC(C)(C)O2 (stereo not given) | normalized growth | 1.03 |
| C[C@@H]1CC[C@]2(C(=O)O)CC[C@]3(C)C(=CCC4[C@@]5(C)CC[C@H](O)C(C)(C)C5CC[C@]43C)C2[C@H]1C (stereo not given in full) | normalized growth | 0.998 |
| NC(N)=N/N=C/c1c(Cl)cccc1Cl | normalized growth | 0.974 |
| CC(C)CCCC1(C)C=Cc2c(O)c3c(c(CCC(C)C)c2O1)OC12C(CC4CC1C(C)(C)OC2(CCC(C)C(=O)O)C4O)C3=O (stereo not given) | normalized growth | 0.999 |
| COc1cc(N)c(Cl)cc1C(=O)NC1CCN(Cc2ccccc2)CC1 | normalized growth | 0.998 |
| O=C(O)CC(O)(CC(=O)O)C(=O)O | normalized growth | 0.982 |
| Cc1ccc(N=CN(C)C=Nc2ccc(C)cc2C)c(C)c1 | normalized growth | 0.985 |
| CNC(=O)O/N=C\C(C)(C)SC | normalized growth | 1.01 |
| OC(CCN1CCCCC1)(c1ccccc1)C1CC2C=CC1C2 (stereo not given) | normalized growth | 1.01 |
